Can you tell me half-life at 1 µM for the items I'm about to list?
- assay_comment: Half life in rat liver microsomes at 1 uM incubated for 2 to 60 mins in presence of NADPH by LC-MS/MS analysis
- Type: ADME, Microsome
- condition_parameters: time 2-60 min
Give bare numbers, in min.

>>> meas_value("CC(C)C[C@H](NC(=O)C(CC1CC1)NC(=O)c1cc(C(F)(F)F)ccc1C(F)(F)F)B1OC2C3OC(CC3C(=O)O)C2(C)O1 (some centres not stated)")
25.2

Now for the molecule whose half-life at 1 µM we want.
Note half-life at 1 µM for the molecule shown: CC(C)C[C@H](NC(=O)C(NC(=O)c1cc(C(F)(F)F)ccc1C(F)(F)F)C1CC1)B1OC2C3OC(CC3C(=O)O)C2(C)O1 (some centres not stated)
24.9

---

- assay_comment: Stability of the compound in stimulated […] fluid at pH 1.2 measured after 4 hrs
- Type: ADME
- condition_parameters: simulated gi fluid, pH 1.2, 4 h
Can you tell me Stability for the items I'm about to list?
Numbers only, in %.

>>> meas_value("CC(C)C[C@H](NC(=O)CNC(=O)c1cc(Cl)ccc1Cl)B1OC2(C)CC3C(=O)NC(=O)C3CC2(C)O1 (stereo not given in full)")
53.78

Could you tell me Stability for each of these molecules? They are listed below.
1. CC(C)C[C@H](NC(=O)C(CC1CC1)NC(=O)c1cc(C(F)(F)F)ccc1C(F)(F)F)B1OC2C3OC(CC3C(=O)O)C2(C)O1 (stereo not given in full)
2. CC(C)C[C@H](NC(=O)CNC(=O)c1cc(Cl)ccc1Cl)B1OC2C3OC(c4ccccc43)C2O1 (stereo not given in full)
3. CC(C)C[C@H](NC(=O)CNC(=O)c1cc(Cl)ccc1Cl)B(O)O
4. CC(C)C[C@H](NC(=O)C(NC(=O)c1cc(C(F)(F)F)ccc1C(F)(F)F)C1CC1)B1OC2C3OC(CC3C(=O)O)C2(C)O1 (stereo not given in full)

1. 58.25
2. 50.68
3. 100
4. 57.32

---

- assay_comment: Half life in mouse liver microsomes at 1 uM incubated for 2 to 60 mins in presence of NADPH by LC-MS/MS analysis
- Type: ADME, Microsome
- condition_parameters: time 2-60 min
experimental_endpoint: half-life at 1 µM (min)
Answers are plain numbers, in min.

>>> meas_value("CC(C)C[C@H](NC(=O)C(NC(=O)c1cc(C(F)(F)F)ccc1C(F)(F)F)C1CC1)B1OC2C3OC(CC3C(=O)O)C2(C)O1 (some centres not stated)")
36.7

Now for the compound whose half-life at 1 µM we want.
Note half-life at 1 µM for the compound shown: CC(C)C[C@H](NC(=O)C(CC1CC1)NC(=O)c1cc(C(F)(F)F)ccc1C(F)(F)F)B1OC2C3OC(CC3C(=O)O)C2(C)O1 (some centres not stated)
28.3

---

Can you tell me microsomal CLint at 1 µM for the items I'm about to list?
- assay_comment: Intrinsic clearance in dog liver microsomes at 1 uM incubated for 2 to 60 mins in presence of NADPH by LC-MS/MS analysis
- Format: ADME, Canis lupus familiaris, Microsome
- condition_parameters: time 2-60 min, read-out: CLH
Numbers only, in µL/min/mg.

>>> meas_value("CC(C)C[C@H](NC(=O)C(CC1CC1)NC(=O)c1cc(C(F)(F)F)ccc1C(F)(F)F)B1OC2C3OC(CC3C(=O)O)C2(C)O1 (some centres not stated)")
19

Now for the molecule whose microsomal CLint at 1 µM we want.
Note microsomal CLint at 1 µM for the molecule shown: CC(C)C[C@H](NC(=O)C(NC(=O)c1cc(C(F)(F)F)ccc1C(F)(F)F)C1CC1)B1OC2C3OC(CC3C(=O)O)C2(C)O1 (some centres not stated)
16.4

---

- assay_comment: Stability of the compound in stimulated […] fluid at pH 1.2 measured after 1 min
- Assay type: ADME
- condition_parameters: simulated gi fluid, pH 1.2, 1 min
Mark Not fulfilled for Stability values under 7%, and Fulfilled for everything at or above.

>>> qualitative_label("CC(C)C[C@H](NC(=O)CNC(=O)c1cc(Cl)ccc1Cl)B1OC2C3OC(CC3C(=O)O)C2(C)O1 (stereo not given in full)")
"Not fulfilled"
>>> qualitative_label("CC(C)C[C@H](NC(=O)CNC(=O)c1cc(Cl)ccc1Cl)B1OC2(C)CC3C(=O)NC(=O)C3CC2(C)O1 (stereo not given in full)")
"Fulfilled"
>>> qualitative_label("CC(C)C[C@H](NC(=O)C(NC(=O)c1cc(C(F)(F)F)ccc1C(F)(F)F)C1CC1)B1OC2C3OC(CC3C(=O)O)C2(C)O1 (stereo not given in full)")
"Not fulfilled"
>>> qualitative_label("CC(C)C[C@H](NC(=O)CNC(=O)c1cc(Cl)ccc1Cl)B(O)O")
"Fulfilled"

We next turn to a different compound, shown below.
Exam item: decide whether the reported Stability for CC(C)C[C@H](NC(=O)C(CC1CC1)NC(=O)c1cc(C(F)(F)F)ccc1C(F)(F)F)B1OC2C3OC(CC3C(=O)O)C2(C)O1 (stereo not given in full) is at least 7%.
Not fulfilled

---

Can you tell me Stability for the items I'm about to list?
- assay_comment: Stability of the compound in stimulated […] fluid at pH 1.2 measured after 1 min
- Type: ADME
- condition_parameters: simulated gi fluid, pH 1.2, 1 min
One number for each entry, in %.

Before answering, review these 3 worked examples.
>>> meas_value("CC(C)C[C@H](NC(=O)CNC(=O)c1cc(Cl)ccc1Cl)B1OC2C3CC(C(=O)O)C(O3)C2O1 (some centres undefined)")
14.06
>>> meas_value("CC(C)C[C@H](NC(=O)CNC(=O)c1cc(Cl)ccc1Cl)B1OC2C3OC(c4ccccc43)C2O1 (some centres undefined)")
19.33
>>> meas_value("CC(C)C[C@H](NC(=O)CNC(=O)c1cc(Cl)ccc1Cl)B1OC2(C)CCC(C(=O)O)CC2(C)O1 (some centres undefined)")
62.06

Note Stability for the molecule shown: CC(C)C[C@H](NC(=O)CNC(=O)c1cc(Cl)ccc1Cl)B1OC2C3OC(C4C(=O)NC(=O)C34)C2(C)O1 (some centres undefined)
70.91

---

- assay_comment: Stability of the compound in stimulated […] fluid at pH 6.8 measured after 2 hrs
- Assay type: ADME
- condition_parameters: simulated intestinal fluid, read-out: Stability
experimental_endpoint: remaining at 2 h (%)
One number for each entry, in %.

>>> meas_value("CC(C)C[C@H](NC(=O)C(CC1CC1)NC(=O)c1cc(C(F)(F)F)ccc1C(F)(F)F)B1OC2C3OC(CC3C(=O)O)C2(C)O1 (some centres undefined)")
3.55
>>> meas_value("CC(C)C[C@H](NC(=O)CNC(=O)c1cc(Cl)ccc1Cl)B1OC2C3OC(C4C(=O)NC(=O)C34)C2(C)O1 (some centres undefined)")
11.4
>>> meas_value("CC(C)C[C@H](NC(=O)CNC(=O)c1cc(Cl)ccc1Cl)B1OC2(C)CCC(C(=O)O)CC2(C)O1 (some centres undefined)")
83.7
>>> meas_value("CC(C)C[C@H](NC(=O)CNC(=O)c1cc(Cl)ccc1Cl)B1OC2(C)CC3C(=O)NC(=O)C3CC2(C)O1 (some centres undefined)")
7.58
>>> meas_value("CC(C)C[C@H](NC(=O)C(NC(=O)c1cc(C(F)(F)F)ccc1C(F)(F)F)C1CC1)B1OC2C3OC(CC3C(=O)O)C2(C)O1 (some centres undefined)")
2.82

Could you tell me remaining at 2 h for each of these molecules? They are listed below.
1. CC(C)C[C@H](NC(=O)CNC(=O)c1cc(Cl)ccc1Cl)B1OC2C3OC(CC3C(=O)O)C2(C)O1 (some centres undefined)
2. CC(C)C[C@H](NC(=O)CNC(=O)c1cc(Cl)ccc1Cl)B1OC2C3CC(C(=O)O)C(O3)C2O1 (some centres undefined)
3. CC(C)C[C@H](NC(=O)CNC(=O)c1cc(Cl)ccc1Cl)B1OC2C3OC(c4ccccc43)C2O1 (some centres undefined)
4. CC(C)C[C@H](NC(=O)CNC(=O)c1cc(Cl)ccc1Cl)B(O)O

12.9
23.9
1.79
100

---

- assay_comment: Stability of the compound in stimulated […] fluid at pH 1.2 measured after 2 hrs
- Assay type: ADME
- condition_parameters: simulated gi fluid, pH 1.2, 2 h
experimental_endpoint: Stability (%)
One number for each entry, in %.

Could you tell me Stability for each of these compounds? They are listed below.
1. CC(C)C[C@H](NC(=O)CNC(=O)c1cc(Cl)ccc1Cl)B1OC2C3OC(C4C(=O)NC(=O)C34)C2(C)O1 (stereo not given in full)
2. CC(C)C[C@H](NC(=O)CNC(=O)c1cc(Cl)ccc1Cl)B1OC2C3CC(C(=O)O)C(O3)C2O1 (stereo not given in full)
3. CC(C)C[C@H](NC(=O)C(CC1CC1)NC(=O)c1cc(C(F)(F)F)ccc1C(F)(F)F)B1OC2C3OC(CC3C(=O)O)C2(C)O1 (stereo not given in full)
4. CC(C)C[C@H](NC(=O)C(NC(=O)c1cc(C(F)(F)F)ccc1C(F)(F)F)C1CC1)B1OC2C3OC(CC3C(=O)O)C2(C)O1 (stereo not given in full)
5. CC(C)C[C@H](NC(=O)CNC(=O)c1cc(Cl)ccc1Cl)B1OC2(C)CCC(C(=O)O)CC2(C)O1 (stereo not given in full)

1. 67.8
2. 83.62
3. 59.73
4. 56.83
5. 98.08
